Tested on: Geotrichum candidum
method summary: Inhibition of DHPS in Geotrichum candidum assessed as antifungal activity by measuring inhibition zone at 5 mg/mL incubated for 48 hrs by disk diffusion method
Calls of active or inactive are those of the source. The rule behind the calls is not given here.
endpoint label: inhibition zone (IZ)

smiles_notation=CCS/C(NC)=C(\C#N)C(=O)Nc1ccc(S(=O)(=O)Nc2onc(C)c2C)cc1 endpoint_label="inhibition zone (IZ)" result="18.3 mm"
smiles_notation=CCS/C(Nc1ccccc1)=C(\C#N)C(=O)Nc1ccc(S(=O)(=O)Nc2onc(C)c2C)cc1 endpoint_label="inhibition zone (IZ)" result=inactive
smiles_notation=CS/C(Nc1ccccc1)=C(\C#N)C(=O)Nc1ccc(S(=O)(=O)Nc2onc(C)c2C)cc1 endpoint_label="inhibition zone (IZ)" result=inactive
smiles_notation=CN/C(S[C@@H]1O[C@H](COC(C)=O)[C@@H](OC(C)=O)[C@H](OC(C)=O)[C@H]1OC(C)=O)=C(/C#N)C(=O)Nc1ccc(S(=O)(=O)Nc2onc(C)c2C)cc1 endpoint_label="inhibition zone (IZ)" result="21.2 mm"
smiles_notation=Cc1noc(NS(=O)(=O)c2ccc(NC(=O)/C(C#N)=C(/S)Nc3ccccc3)cc2)c1C endpoint_label="inhibition zone (IZ)" result="17.1 mm"

// next entry
Given C[C@@H]1[C@H](O)[C@@H](C)/C=C/C=C/C=C/C=C/C=C/C=C/C=C/[C@H](O[C@@H]2O[C@H](C)[C@@H](O)[C@H](N)[C@@H]2O)C[C@@H]2O[C@](O)(C[C@@H](O)C[C@@H](O)[C@H](O)CC[C@@H](O)C[C@@H](O)CC(=O)O[C@H]1C)C[C@H](O)[C@H]2C(=O)O , state its recorded inhibition zone (IZ).
28.7 mm

---

System: Streptococcus pneumoniae
method summary: Inhibition of DHPS in Streptococcus pneumoniae assessed as antibacterial activity by measuring inhibition of bacterial growth incubated for 24 hrs by microbroth dilution method
MIC strictly less than 4 µg/mL = Y. Otherwise N.

Below are worked cases with known answers.
smiles_notation=C=CCN/C(S)=C(/C#N)C(=O)Nc1ccc(S(=O)(=O)Nc2onc(C)c2C)cc1 experimental_target="Streptococcus pneumoniae" category_label=Y
smiles_notation=CC(=O)OC[C@H]1O[C@@H](S/C(Nc2ccccc2)=C(\C#N)C(=O)Nc2ccc(S(=O)(=O)Nc3onc(C)c3C)cc2)[C@H](OC(C)=O)[C@@H](OC(C)=O)[C@H]1OC(C)=O experimental_target="Streptococcus pneumoniae" category_label=N
smiles_notation=CCN/C(SCC)=C(/C#N)C(=O)Nc1ccc(S(=O)(=O)Nc2onc(C)c2C)cc1 experimental_target="Streptococcus pneumoniae" category_label=Y
smiles_notation=C=CCN/C(S[C@@H]1O[C@H](COC(C)=O)[C@@H](OC(C)=O)[C@H](OC(C)=O)[C@H]1OC(C)=O)=C(/C#N)C(=O)Nc1ccc(S(=O)(=O)Nc2onc(C)c2C)cc1 experimental_target="Streptococcus pneumoniae" category_label=Y

# TODO verify MIC < 4 µg/mL strictly for this compound: CCN/C(S)=C(/C#N)C(=O)Nc1ccc(S(=O)(=O)Nc2onc(C)c2C)cc1
N

Regarding Cc1noc(NS(=O)(=O)c2ccc(NC(=O)/C(C#N)=C(/S)NC34CC5CC(CC(C5)C3)C4)cc2)c1C , kindly confirm whether its MIC is beneath 4 µg/mL.
N

Lab log: compare recorded MIC with 4 µg/mL; is it strictly lower for C=CCN/C(SCC)=C(/C#N)C(=O)Nc1ccc(S(=O)(=O)Nc2onc(C)c2C)cc1 ?
Y

---

Tested on: Syncephalastrum racemosum
method summary: Inhibition of DHPS in Syncephalastrum racemosum assessed as antifungal activity by measuring inhibition zone at 5 mg/mL incubated for 48 hrs by disk diffusion method
The source made the active and inactive calls. No cut-off for these calls is given here.
endpoint label: inhibition zone (IZ)

Recorded results for 8 compounds are shown here.
smiles_notation=Cc1noc(NS(=O)(=O)c2ccc(N)cc2)c1C result="13.2 mm"
smiles_notation=CN/C(SC)=C(/C#N)C(=O)Nc1ccc(S(=O)(=O)Nc2onc(C)c2C)cc1 result=inactive
smiles_notation=CCN/C(SCC)=C(/C#N)C(=O)Nc1ccc(S(=O)(=O)Nc2onc(C)c2C)cc1 result="20.3 mm"
smiles_notation=CCN/C(S)=C(/C#N)C(=O)Nc1ccc(S(=O)(=O)Nc2onc(C)c2C)cc1 result="13.2 mm"
smiles_notation=CC(=O)OC[C@H]1O[C@@H](S/C(Nc2ccccc2)=C(\C#N)C(=O)Nc2ccc(S(=O)(=O)Nc3onc(C)c3C)cc2)[C@H](OC(C)=O)[C@@H](OC(C)=O)[C@@H]1OC(C)=O result=inactive
smiles_notation=C=CCN/C(S)=C(/C#N)C(=O)Nc1ccc(S(=O)(=O)Nc2onc(C)c2C)cc1 result="20.4 mm"
smiles_notation=Cc1noc(NS(=O)(=O)c2ccc(NC(=O)/C(C#N)=C(/S)Nc3ccccc3)cc2)c1C result="14.3 mm"
smiles_notation=CCS/C(Nc1ccccc1)=C(\C#N)C(=O)Nc1ccc(S(=O)(=O)Nc2onc(C)c2C)cc1 result=inactive

Next item in the queue.
Using the record for Cc1noc(NS(=O)(=O)c2ccc(NC(=O)c3c(N)n[nH]c3Nc3ccccc3)cc2)c1C , report its inhibition zone (IZ).
inactive

---

Listing of recorded inhibition zone (IZ) by entry.
Test system: Aspergillus fumigatus
method summary: Inhibition of DHPS in Aspergillus fumigatus assessed as antifungal activity by measuring inhibition zone at 5 mg/mL incubated for 48 hrs by disk diffusion method
Give the value, in units of mm, as a plain number.

Give the measured inhibition zone (IZ) of CN/C(S)=C(/C#N)C(=O)Nc1ccc(S(=O)(=O)Nc2onc(C)c2C)cc1 .
18.6

GET /values?readout=inhibition zone (IZ)&item= CN/C(S[C@@H]1O[C@H](COC(C)=O)[C@@H](OC(C)=O)[C@H](OC(C)=O)[C@H]1OC(C)=O)=C(/C#N)C(=O)Nc1ccc(S(=O)(=O)Nc2onc(C)c2C)cc1
19.3

What value of inhibition zone (IZ) has been recorded for this entry: CN/C(S[C@@H]1O[C@H](COC(C)=O)[C@H](OC(C)=O)[C@H](OC(C)=O)[C@H]1OC(C)=O)=C(/C#N)C(=O)Nc1ccc(S(=O)(=O)Nc2onc(C)c2C)cc1
16.3

---

Measured Ratio of individual entries
Tested on: Klebsiella pneumoniae
method summary: Potency index, ratio of sulfisoxazole MIC to compound MIC for Klebsiella pneumoniae assessed as inhibition of DHPS-mediated bacterial growth incubated for 24 hrs by microbroth dilution method

See these solved cases before continuing.
smiles_notation=C=CCN/C(S[C@@H]1O[C@H](COC(C)=O)[C@H](OC(C)=O)[C@H](OC(C)=O)[C@H]1OC(C)=O)=C(/C#N)C(=O)Nc1ccc(S(=O)(=O)Nc2onc(C)c2C)cc1 endpoint_label=Ratio result=4
smiles_notation=C=CCN/C(S)=C(/C#N)C(=O)Nc1ccc(S(=O)(=O)Nc2onc(C)c2C)cc1 endpoint_label=Ratio result=4
smiles_notation=CN/C(S[C@@H]1O[C@H](COC(C)=O)[C@@H](OC(C)=O)[C@H](OC(C)=O)[C@H]1OC(C)=O)=C(/C#N)C(=O)Nc1ccc(S(=O)(=O)Nc2onc(C)c2C)cc1 endpoint_label=Ratio result=8

Given the compound CN/C(S)=C(/C#N)C(=O)Nc1ccc(S(=O)(=O)Nc2onc(C)c2C)cc1 , what is its reported Ratio?
3

---

Tested on: Aspergillus fumigatus
method summary: Inhibition of DHPS in Aspergillus fumigatus assessed as antifungal activity by measuring inhibition zone at 5 mg/mL incubated for 48 hrs by disk diffusion method
Measured inhibition zone (IZ) of individual entries

Sample records with inhibition zone (IZ):
smiles_notation=C=CCN/C(SCC)=C(/C#N)C(=O)Nc1ccc(S(=O)(=O)Nc2onc(C)c2C)cc1 experimental_target="Aspergillus fumigatus" endpoint_label="inhibition zone (IZ)" result="22.9 mm"
smiles_notation=CCN/C(S)=C(/C#N)C(=O)Nc1ccc(S(=O)(=O)Nc2onc(C)c2C)cc1 experimental_target="Aspergillus fumigatus" endpoint_label="inhibition zone (IZ)" result="12.6 mm"
smiles_notation=CCN/C(S[C@@H]1O[C@H](COC(C)=O)[C@@H](OC(C)=O)[C@H](OC(C)=O)[C@H]1OC(C)=O)=C(/C#N)C(=O)Nc1ccc(S(=O)(=O)Nc2onc(C)c2C)cc1 experimental_target="Aspergillus fumigatus" endpoint_label="inhibition zone (IZ)" result="24.2 mm"
smiles_notation=CCS/C(NC)=C(\C#N)C(=O)Nc1ccc(S(=O)(=O)Nc2onc(C)c2C)cc1 experimental_target="Aspergillus fumigatus" endpoint_label="inhibition zone (IZ)" result="17.1 mm"

Now examine the next entry.
Enter reported inhibition zone (IZ) observed with Aspergillus fumigatus for C=CCN/C(S[C@@H]1O[C@H](COC(C)=O)[C@H](OC(C)=O)[C@H](OC(C)=O)[C@H]1OC(C)=O)=C(/C#N)C(=O)Nc1ccc(S(=O)(=O)Nc2onc(C)c2C)cc1
18.3 mm

---

System: Aspergillus fumigatus
method summary: Inhibition of DHPS in Aspergillus fumigatus assessed as antifungal activity by measuring inhibition of fungal growth incubated for 48 hrs by microbroth dilution method
One threshold, 1 µg/mL, splits the recorded MIC values: lower ones are True, equal or higher ones are False.

Would you kindly verify if MIC of CCN/C(S[C@@H]1O[C@H](COC(C)=O)[C@@H](OC(C)=O)[C@H](OC(C)=O)[C@H]1OC(C)=O)=C(/C#N)C(=O)Nc1ccc(S(=O)(=O)Nc2onc(C)c2C)cc1 is strictly less than 1 µg/mL?
False

A record lists Cc1noc(NS(=O)(=O)c2ccc(NC(=O)/C(C#N)=C(/S)Nc3ccccc3)cc2)c1C . Is its MIC below 1 µg/mL?
False

Field: below-cutoff. Rule: recorded MIC strictly less than 1 µg/mL. Subject: Cc1noc(NS(=O)(=O)c2ccc(NC(=O)/C(C#N)=C(/S)NC34CC5CC(CC(C5)C3)C4)cc2)c1C
False

Say whether its MIC is strictly beneath 1 µg/mL. Entry: C=CCN/C(S)=C(/C#N)C(=O)Nc1ccc(S(=O)(=O)Nc2onc(C)c2C)cc1
True

Lab note: MIC threshold 1 µg/mL. Does this compound come in strictly under it? C=CCN/C(SCC)=C(/C#N)C(=O)Nc1ccc(S(=O)(=O)Nc2onc(C)c2C)cc1
True

# strict comparison: is reported MIC < 1 µg/mL? input = CN/C(S[C@@H]1O[C@H](COC(C)=O)[C@H](OC(C)=O)[C@H](OC(C)=O)[C@H]1OC(C)=O)=C(/C#N)C(=O)Nc1ccc(S(=O)(=O)Nc2onc(C)c2C)cc1
False
